target: Beta-adrenergic receptor kinase 1 (Homo sapiens); assay: RNA aptamer-GRK2 binding blockers – biochemical, cherry pick 1, bead flow cytometry, confirmation (AID 504451); conditions: bead-bound GRK2, FAM-aptamer displacement, at 10 µM, active compounds read high;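 also: negative values mostly reflect intrinsic compound fluorescence rather than true enhancement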
The campaign covered roughly 2,000 compounds. About 80 (4%) were called active. A selection follows.
Answer each item with its documented aptamer displacement.
Field format: number, assumed %, no unit text.

Reported aptamer displacement of O=C(c1cnn(-c2ccc(Cl)cc2)c1)c1ccccc1O : 0.64

# aptamer displacement (compound: Cc1nc(Nc2ccccc2F)c2nnn(Cc3ccccc3Cl)c2n1 ) is 0.75

Just so you know, measured aptamer displacement for CCCCn1nc(C(=O)OCC(=O)Nc2sccc2C(N)=O)c2ccccc2c1=O came out at -3.95

Form: compound = Nc1ccc2nc3c(=O)[nH]c(=S)[nH]c3nc2c1 ; aptamer displacement = 33

Recorded result, CCOC(=O)C(C)n1cnc2scc(-c3ccc(C)c(C)c3)c2c1=O (configuration not stated) , aptamer displacement: 0.17

O=C(CCNC(=O)c1ccccc1)NN=Cc1ccc(Br)o1 yielded aptamer displacement of 8.12

Record CCN1/C(=C/c2ccc3ccc(C)cc3[n+]2CC)Sc2ccccc21 , field aptamer displacement: 65.9

The recorded aptamer displacement for CN(Cc1ccccc1)C(=O)c1cccc(C(=O)N(C)Cc2ccccc2)c1 is -0.51

What the record says about Cc1ccc(N2C(=O)C3N=NN(CC(=O)N4N=C(c5cccc6ccccc56)CC4c4ccccc4)C3C2=O)cc1 (configuration not stated) : aptamer displacement is -6.3

The reported aptamer displacement of the compound O=C(O)c1ccc2c(c1)C(=O)N(c1ccc(/C=C/C(=O)c3ccccc3)cc1)C2=O was 0.79

Please fill in: aptamer displacement reported for O=C(c1cc2cc(F)ccc2[nH]1)N1CCN(c2ccc(F)cc2)CC1 = -3.05

// aptamer displacement lookup, compound = COc1cc(C(=O)OCC(=O)N(CC(C)C)C2CCS(=O)(=O)C2)ccc1OCC(C)C (configuration not stated) , result: -1.87
